- Tested on: A. fumigatus
- Test: Antifungal activity: Minimum Inhibitory Concentration
- Assay type: cell-based, Aspergillus fimigatus (A. fumigatus) NCPF 2140
- Protocol Conditions: Aspergillus fumigatus, A. fumigatus, Day 1; 27° C., one week; read-out: Minimum Inhibitory Concentration
Assay Metric: MIC (µg/mL)
Give bare numbers, in µg/mL.

Reference set, count: 2
{"Line Notation": "CCCCCCCCCCCCCCn1ccc[n+]1C", "MIC [µg/mL]": 50}
{"Line Notation": "C=CCn1c(C)cc(C)[n+]1CCCCCCCCCCCCCCCC.[Br-]", "MIC [µg/mL]": 10}

# batch: return MIC for each of the 3 compounds below
1. CCCCCCCCCCCCn1c(C)cc(C)[n+]1C
2. CCCCCCCCCCCCCC[n+]1c(C)cc(C)n1Cc1ccc([N+](=O)[O-])cc1.[Br-]
3. CCCCCCCCCCCC[n+]1c(C)cc(C)n1Cc1ccc(Cl)cc1Cl.[Br-]

100
50
5
